Molecular target: Amyloid-β (Aβ1-42) aggregates (Homo sapiens, UniProt P05067)
Construct: Aβ1-42 (aggregates)
Sequence (P05067 672-713): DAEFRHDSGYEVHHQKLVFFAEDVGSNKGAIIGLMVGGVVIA
Assay: fluorescence enhancement titration (supported by far-UV CD and van't Hoff analysis)

{"COMPOUND": "O=C(O)CN1C(=O)/C(=C/c2ccc(N(c3ccccc3)c3ccccc3)cc2)SC1=S [mRA, triphenylamine rhodamine-3-acetic acid]", "Kd, nM": 341}
